This collection of values is drawn from patent US20210145976A1.

system: T1, recombinant biotinylated CD71 extracellular domain (Sino Biologics) with an N-terminal 6His tag (human, UniProt P02786 89-760, biotinylated (sites not given))
T1 construct: extracellular domain; also called hCD71; huCD71
T1 sequence (P02786 other isoform, or with tags, fused parts or gaps): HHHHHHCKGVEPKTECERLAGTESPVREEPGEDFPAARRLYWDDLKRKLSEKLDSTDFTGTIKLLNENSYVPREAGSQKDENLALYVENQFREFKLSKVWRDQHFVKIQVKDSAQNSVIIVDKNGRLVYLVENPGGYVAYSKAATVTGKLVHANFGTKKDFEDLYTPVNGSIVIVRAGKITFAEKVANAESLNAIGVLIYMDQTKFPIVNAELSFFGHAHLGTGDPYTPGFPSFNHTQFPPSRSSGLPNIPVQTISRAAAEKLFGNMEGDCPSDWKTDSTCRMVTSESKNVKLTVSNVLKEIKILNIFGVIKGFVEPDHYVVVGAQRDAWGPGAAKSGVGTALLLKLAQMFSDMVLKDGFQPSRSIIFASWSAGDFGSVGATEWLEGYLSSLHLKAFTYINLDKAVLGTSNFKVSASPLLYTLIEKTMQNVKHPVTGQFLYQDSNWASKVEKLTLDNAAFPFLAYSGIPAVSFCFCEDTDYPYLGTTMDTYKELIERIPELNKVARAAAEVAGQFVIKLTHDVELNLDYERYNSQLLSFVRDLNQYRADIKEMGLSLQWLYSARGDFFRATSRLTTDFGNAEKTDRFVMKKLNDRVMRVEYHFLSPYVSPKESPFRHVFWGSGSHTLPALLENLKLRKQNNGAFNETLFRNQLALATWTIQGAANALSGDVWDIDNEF
assay_text: screening ELISA, ratio
readout_label: hCD71:HSA

P = SEQ ID NO 247 (designed binder, FN3 domain) MLPAPKNLVVSRVTEDSARLSWTAPDAAFDSFYIEWTYKGEAIVLTVPGSERSYDLTGLKPGTEYFVGIPGVKGGKSSYPLSAIFTT
Q = SEQ ID NO 227 (designed binder, FN3 domain) MLPAPKNLVVSRVTEDSARLSWTAPDAAFDSFRIRYLEWWNIGEAIVLTVPGSERSYDLTGLKPGTEYHVDIWGVKGGYSSYPLSAIFTT
R = SEQ ID NO 272 (designed binder, FN3 domain) MLPAPKNLVVSRVTEDSARLSWTAPDAAFDSFGIPYAESTPTGEAIVLTVPGSERSYDLTGLKPGTEYSVLIHGVKGGHLSDPLSAIFTT
List from greatest to least hCD71:HSA. Answer with the labels in sequence, matching the requested order.
Q, R, P
(Q: 1680, R: 199, P: 17)
